- Species on record: Rattus norvegicus
- Method Description: DrugMatrix - Regimen: Daily Repeat
- Type: toxicity, organism-based, Sprague-Dawley
- Design: regimen Daily Repeat, gender Male, age 6-8 weeks
- Condition: in vivo, iv, 0 mg/kg, 72 h, tissue Blood, dose level Control, time 3 day, vehicle 100 % SALINE
Observation Type: ABSOLUTE LYMPHOCYTE (CELLS/uL)
Field: numeric (CELLS/uL). Do not append units.

Compound	Display Unit	ABSOLUTE LYMPHOCYTE
COc1cccc2c1C(=O)c1c(O)c3c(c(O)c1C2=O)C[C@@](O)(C(=O)CO)C[C@@H]3O[C@H]1C[C@H](N)[C@H](O)[C@H](C)O1	CELLS/uL	7855.5

Recorded ABSOLUTE LYMPHOCYTE of `CCc1c2c(nc3ccc(OC(=O)N4CCC(N5CCCCC5)CC4)cc13)-c1cc3c(c(=O)n1C2)COC(=O)[C@]3(O)CC` , please.
12448.83

Moving on to the next compound: `CCC1=C[C@@H]2CN(C1)Cc1c([nH]c3ccccc13)[C@@](C(=O)OC)(c1cc3c(cc1OC)N(C)[C@H]1[C@@](O)(C(=O)OC)[C@H](OC(C)=O)[C@]4(CC)C=CCN5CC[C@]31[C@@H]54)C2`
9513.5

Same lookup for COc1cccc2c1C(=O)c1c(O)c3c(c(O)c1C2=O)C[C@@](O)(C(=O)CO)C[C@@H]3O[C@H]1C[C@H](N)[C@@H](O)[C@H](C)O1 [EPIRUBICIN] , please.
12448.83

Try this compound too: `CC(=O)N[C@@H]1[C@H](Oc2c3cc4cc2Oc2ccc(cc2Cl)[C@@H](O[C@@H]2O[C@@H](CO)[C@@H](O)[C@H](O)[C@@H]2NC(C)=O)[C@@H]2NC(=O)[C@H](NC(=O)[C@@H]4NC(=O)[C@H]4NC(=O)[C@@H](Cc5ccc(c(Cl)c5)O3)NC(=O)[C@H](N)c3ccc(O)c(c3)Oc3cc(O)cc4c3)c3ccc(O)c(c3)-c3c(O[C@H]4O[C@H](CO)[C@@H](O)[C@@H](O)[C@@H]4O)cc(O)cc3[C@@H](C(=O)O)NC2=O)O[C@@H](CO)[C@@H](O)[C@@H]1O`
15717.5

Another compound to look at: `CC[C@]1(O)C[C@@H]2CN(CCc3c([nH]c4ccccc34)[C@@](C(=O)OC)(c3cc4c(cc3OC)N(C)[C@H]3[C@@](O)(C(=O)OC)[C@H](OC(C)=O)[C@]5(CC)C=CCN6CC[C@]43[C@@H]65)C2)C1`
10193.67
